Recorded EC50 values for a group of binders are listed next.
Target: T1, cyno TfR extracellular domain (analogous construct to human TfR ecd) (cynomolgus monkey, UniProt Q5RDH6 87-760 (Pongo abelii entry))
T1 construct: also called cynoTfR ecd
T1 chain: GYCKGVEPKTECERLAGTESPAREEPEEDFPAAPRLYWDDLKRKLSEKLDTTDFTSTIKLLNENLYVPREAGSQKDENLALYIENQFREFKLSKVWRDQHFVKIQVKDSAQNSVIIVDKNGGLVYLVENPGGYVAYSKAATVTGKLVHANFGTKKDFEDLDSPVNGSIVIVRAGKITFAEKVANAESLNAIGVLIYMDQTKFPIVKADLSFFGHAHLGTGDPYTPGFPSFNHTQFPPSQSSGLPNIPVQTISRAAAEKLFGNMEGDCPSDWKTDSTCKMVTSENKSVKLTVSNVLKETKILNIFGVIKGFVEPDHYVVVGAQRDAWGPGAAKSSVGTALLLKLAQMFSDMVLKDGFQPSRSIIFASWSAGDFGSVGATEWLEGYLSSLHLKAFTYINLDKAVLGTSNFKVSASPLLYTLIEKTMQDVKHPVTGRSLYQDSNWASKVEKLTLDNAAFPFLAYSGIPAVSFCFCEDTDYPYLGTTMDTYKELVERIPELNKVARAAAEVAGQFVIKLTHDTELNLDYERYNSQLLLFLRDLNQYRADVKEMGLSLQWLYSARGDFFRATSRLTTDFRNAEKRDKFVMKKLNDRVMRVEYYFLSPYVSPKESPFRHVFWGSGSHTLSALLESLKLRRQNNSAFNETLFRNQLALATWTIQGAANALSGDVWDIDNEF
Experiment: ELISA, TfR-coated plate, IgG in culture supernatant;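 also: human or cynomolgus TfR coated at 2 µg/mL, supernatant IgG titrated in 1:5 steps for 1 h, bound antibody read with HRP anti-human Fcγ and TMB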
Answer with a number only, understood to be in ng/mL.

Some solved entries appear below for comparison.
- BINDER: "hu15G11.v5 IgG Ala variant S31A (HVR-H1) (antibody, name in Kabat numbering, V domains shown, IgG in cell culture supernatant; also called S31A (heavy chain)) VH: EVQLVQSGAEVKKPGASVKVSCKASGYTFTAYWMHWVRQAPGQRLEWIGEINPTNGRTNYIEKFKSRATLTVDKSASTAYMELSSLRSEDTAVYYCARGTRAYHYWGQGTMVTVSS VL: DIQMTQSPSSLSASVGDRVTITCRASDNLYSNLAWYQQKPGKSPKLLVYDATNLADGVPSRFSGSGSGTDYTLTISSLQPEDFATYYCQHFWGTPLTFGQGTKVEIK"
  RESULT_NUMBER: 0.1
- BINDER: "hu15G11.v5 IgG Ala variant N28A (HVR-L1) (antibody, V domains shown, IgG in cell culture supernatant) VH: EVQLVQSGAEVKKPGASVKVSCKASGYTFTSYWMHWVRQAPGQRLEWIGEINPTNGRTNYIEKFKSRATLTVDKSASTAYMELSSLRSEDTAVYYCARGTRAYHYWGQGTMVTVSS VL: DIQMTQSPSSLSASVGDRVTITCRASDALYSNLAWYQQKPGKSPKLLVYDATNLADGVPSRFSGSGSGTDYTLTISSLQPEDFATYYCQHFWGTPLTFGQGTKVEIK"
  RESULT_NUMBER: 0.8

Consider the additional binder presented here.
Return EC50 (reported value) for this binder: hu15G11.v5 IgG Ala variant K62A (HVR-H2) (antibody, name in Kabat numbering, V domains shown, IgG in cell culture supernatant; Kabat numbers after 52a lie one below the linear count) VH: EVQLVQSGAEVKKPGASVKVSCKASGYTFTSYWMHWVRQAPGQRLEWIGEINPTNGRTNYIEAFKSRATLTVDKSASTAYMELSSLRSEDTAVYYCARGTRAYHYWGQGTMVTVSS VL: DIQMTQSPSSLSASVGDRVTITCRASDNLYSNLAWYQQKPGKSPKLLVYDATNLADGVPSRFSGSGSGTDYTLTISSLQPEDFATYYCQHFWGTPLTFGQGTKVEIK 0.7
